# targetOfAssay: Endothelial lipase (EL) (Homo sapiens (Human), UniProt Q9Y5X9)
# Sequence (Q9Y5X9 21-500): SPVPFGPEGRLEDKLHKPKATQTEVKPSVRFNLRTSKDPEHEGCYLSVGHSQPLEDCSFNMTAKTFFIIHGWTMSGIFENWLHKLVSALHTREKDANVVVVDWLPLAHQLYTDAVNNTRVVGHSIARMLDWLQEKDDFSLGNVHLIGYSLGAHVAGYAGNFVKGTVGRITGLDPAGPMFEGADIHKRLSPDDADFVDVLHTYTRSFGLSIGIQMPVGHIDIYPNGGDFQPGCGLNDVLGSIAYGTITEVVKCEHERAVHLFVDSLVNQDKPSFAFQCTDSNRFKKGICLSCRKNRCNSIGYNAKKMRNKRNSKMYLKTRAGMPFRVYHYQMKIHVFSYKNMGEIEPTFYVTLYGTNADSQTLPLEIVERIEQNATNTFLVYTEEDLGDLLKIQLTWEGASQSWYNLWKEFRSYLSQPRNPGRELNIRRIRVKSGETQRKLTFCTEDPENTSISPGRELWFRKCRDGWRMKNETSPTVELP
# assay: Endothelial lipase (EL) enzymatic assay with fluorescent substrate A10070 in DMPG vesicles
# Type: biochemical
pIC50: −log10 of the molar value.
propertyLabel: pIC50

Recorded pIC50, per entry:
| molecule | pIC50 |
| --- | --- |
| CC(C)S(=O)(=O)C(C(=O)NCC(=O)NC1CC1)c1nc2c(F)cc(-c3ccc4cnn(C)c4c3)cc2s1 (stereo not shown) [Example 281] | 8.05 |
| O=C(CNC(=O)C(c1nc2cc(F)c(-c3cncnc3)cc2s1)S(=O)(=O)c1ccccc1F)NC1CC1 (stereo not shown) [Example 441] | 7.06 |

a = COCCS(=O)(=O)C(C(=O)NCC(=O)NC1CC1)c1nc2cc(-c3c(C)ccnc3F)ccc2s1 (stereo not shown) [Example 92]
b = CC(C)S(=O)(=O)C(C(=O)NCC(=O)NC1CC1)c1nc2cc(F)c(-c3cccc(NC(=O)OCc4ccccc4)c3)cc2s1 (stereo not shown) [Example 557]
c = O=C(CNC(=O)C(c1nc2cc(F)c(-c3cccc(-n4cccn4)c3)cc2s1)S(=O)(=O)CCC(F)(F)F)NC1CC1 (stereo not shown) [Example 137]
d = CCCCS(=O)(=O)C(C(=O)NCC(=O)NC1CC1)c1nc2cc(F)c(-c3ccc(NC(=O)OCc4ccccc4)cc3)cc2s1 (stereo not shown) [Example 53]
e = CS(=O)(=O)C(C(=O)NCC(=O)NC1CC1)c1nc2cc(F)c(-c3ccc(F)nc3)cc2s1 (stereo not shown) [Example 190]
Sort the molecules on pIC50; start with the lowest figure. Present the labels in the sequence the task asks for.
a, e, b, d, c
(a: 7.11, e: 7.80, b: 8.15, d: 8.70, c: 9.00)

---

# targetOfAssay: Endothelial lipase (EL) (Homo sapiens (Human), UniProt Q9Y5X9)
# assay: Endothelial lipase (EL) enzymatic assay with fluorescent substrate A10070 in DMPG vesicles
# Type: biochemical
# appliedConditions: EL from conditioned media of HT-1080 cells; 30 min preincubation at 37° C.
pIC50: −log10 of the molar value.
propertyLabel: pIC50

Completed entries (count: 4):
| compound | targetOfAssay | pIC50 |
| --- | --- | --- |
| O=C(CNC(=O)C(c1nc2cc(F)c(-c3ccc(C(=O)NCCc4ccccc4)cc3)cc2s1)S(=O)(=O)CCC(F)(F)F)NC1CC1 (stereo not drawn) [Example 572] | Endothelial lipase (EL) (Homo sapiens (Human), UniProt Q9Y5X9) | 8.55 |
| COCCNC(=O)CNC(=O)C(c1nc2ccc(-c3ccc4c(c3)CN(C3CC3)C4=O)cc2s1)S(=O)(=O)c1ccc(F)cc1 (stereo not drawn) [Example 595] | Endothelial lipase (EL) (Homo sapiens (Human), UniProt Q9Y5X9) | 7.62 |
| COCCS(=O)(=O)C(C(=O)NCC(=O)NC1CC1)c1nc2ccc(-c3ccc(F)nc3)cc2s1 (stereo not drawn) [Example 376] | Endothelial lipase (EL) (Homo sapiens (Human), UniProt Q9Y5X9) | 8.40 |
| COCCNC(=O)c1ccc(-c2ccc3nc(C(C(=O)NCC(=O)NC4CC4)S(=O)(=O)N4CCOCC4)sc3c2)cc1 (stereo not drawn) [Example 480] | Endothelial lipase (EL) (Homo sapiens (Human), UniProt Q9Y5X9) | 8.40 |

P = COCCS(=O)(=O)C(C(=O)NCC(=O)NC1CC1)c1nc2ccc(-c3ccc(N(C)C(=O)OC(C)(C)C)cc3)cc2s1 (stereo not drawn) [Example 60]
Q = COCCS(=O)(=O)C(C(=O)NCC(=O)NC1CC1)c1nc2cc(F)c(-c3ccc(NC(=O)OCC4CC4)cc3)cc2s1 (stereo not drawn) [Example 525]
// max by pIC50 over [ P , Q ] Selection: enter the item's label.
Q
(Q: 9.30, P: 8.52)

---

# targetOfAssay: Endothelial lipase (EL) (Homo sapiens (Human), UniProt Q9Y5X9)
# assay: Endothelial lipase (EL) enzymatic assay with fluorescent substrate A10070 in DMPG vesicles
# Assay type: biochemical
pIC50: −log10 of the molar value.
propertyLabel: pIC50

| compound | pIC50 |
| --- | --- |
| COCCS(=O)(=O)C(C(=O)NCC(=O)NC1CC1)c1nc2ccc(-c3ccc(C(F)(F)F)nc3)cc2s1 (stereo not shown) [Example 296] | 7.16 |
| CC(C)S(=O)(=O)C(C(=O)NCC(=O)NC1CC1)c1nc2c(F)cc(-c3ccc(C(=O)N4CCC4)cc3)cc2s1 (stereo not shown) [Example 284] | 7.92 |

P = CN(C)C(=O)Nc1ccc(-c2cc3sc(C(C(=O)NCC(=O)NC4CC4)S(=O)(=O)CCC(F)(F)F)nc3cc2F)cc1 (stereo not shown) [Example 6]
Q = COCCS(=O)(=O)C(C(=O)NCC(=O)NC1CC1)c1nc2cc(OC)c(-c3cccnc3F)cc2s1 (stereo not shown) [Example 219]
R = O=C(CNC(=O)C(c1nc2ccc(-c3cncnc3)cc2s1)S(=O)(=O)N1CCOCC1)NC1CC1 (stereo not shown) [Example 481]
S = COC(C)(C)CNC(=O)c1ccc(-c2ccc3nc(C(C(=O)NCC(=O)NC4CC4)S(C)(=O)=O)sc3c2)cc1 (stereo not shown) [Example 571]
T = O=C(CNC(=O)C(c1nc2cc(F)c(-c3ccc(-n4cnnn4)cc3)cc2s1)S(=O)(=O)CCC(F)(F)F)NC1CC1 (stereo not shown) [Example 142]
Reorder: pIC50, max to min. Record the ranking as a list of labels in the requested order.
P, T, S, Q, R
(P: 8.52, T: 8.30, S: 7.92, Q: 7.41, R: 7.00)

---

# targetOfAssay: Endothelial lipase (EL) (Homo sapiens (Human))
# assay: Endothelial lipase (EL) enzymatic assay with fluorescent substrate A10070 in DMPG vesicles
# Type: biochemical
pIC50: −log10 of the molar value.
propertyLabel: pIC50

Below are worked cases with known answers.
| molecule | val |
| --- | --- |
| COCCS(=O)(=O)C(C(=O)NCC(=O)NC1CC1)c1nc2cc(-c3ccc(F)nc3F)ccc2s1 (stereo not shown) [Example 68] | 7.72 |
| COC(=O)Nc1ccc(-c2cc3nc(C(C(=O)NCC(=O)NCCOC(C)C)S(C)(=O)=O)sc3cc2F)cc1F (stereo not shown) [Example 363] | 7.96 |

P = COCCS(=O)(=O)C(C(=O)NCC(=O)NC1CC1)c1nc2ccc(-c3ccc(C(=O)N4C[C@@H](C)O[C@@H](C)C4)cc3)cc2s1 (stereo partly shown) [Example 569]
Q = COCCS(=O)(=O)C(C(=O)NCC(=O)NC1CC1)c1nc2c(F)cc(-c3ccc(=O)n(C(C)C)c3)cc2s1 (stereo not shown) [Example 225]
Endpoint returns the identifier whose pIC50 is numerically larger, either P or Q . // return label of chosen record
P
(P: 7.70, Q: 7.06)

---

# targetOfAssay: Endothelial lipase (EL) (Homo sapiens (Human), UniProt Q9Y5X9)
# assay: Endothelial lipase (EL) enzymatic assay with fluorescent substrate A10070 in DMPG vesicles
# Type: biochemical
propertyLabel: IC50 (nM)

Below are worked cases with known answers.
| compound | IC50, nM |
| --- | --- |
| COCCS(=O)(=O)C(C(=O)NCC(=O)NC1CC1)c1nc2ccc(-c3ccc(COC)cc3)cc2s1 (centres unmarked) | 27 |
| Cc1cccc(S(=O)(=O)C(C(=O)NCC(=O)NC2CC2)c2nc3cc(-c4ccc(F)nc4)ccc3s2)c1 (centres unmarked) | 33 |
| O=C(CNC(=O)C(c1nc2cc(-c3ccc(F)nc3)ccc2s1)S(=O)(=O)Cc1ccc(F)nc1)NC1CC1 (centres unmarked) | 29 |
| COCCS(=O)(=O)C(C(=O)NCC(=O)NC1CC1)c1nc2cc(-c3ccncc3F)ccc2s1 (centres unmarked) | 28 |
| COCCS(=O)(=O)C(C(=O)NCC(=O)NC1CC1)c1nc2cc(F)c(-c3ccc4c(c3)CCCN4C(=O)OC(C)(C)C)cc2s1 (centres unmarked) | 9 |

A = N#Cc1cccc(COC(=O)Nc2ccc(-c3cc4sc(C(C(=O)NCC(=O)NC5CC5)S(=O)(=O)CCC(F)(F)F)nc4cc3F)cc2)c1 (centres unmarked)
B = COCCS(=O)(=O)C(C(=O)NCC(=O)NC1CC1)c1nc2cc(-c3ccc(CNC(C)=O)cc3)ccc2s1 (centres unmarked)
C = COCCS(=O)(=O)C(C(=O)NCC(=O)NC1CC1)c1nc2cc(-c3ccncc3)ccc2s1 (centres unmarked)
D = CS(=O)(=O)C(C(=O)NCC(=O)NC1CC1)c1nc2cc(F)c(-c3ccc(C#N)nc3)cc2s1 (centres unmarked)
E = COCCS(=O)(=O)C(C(=O)NCC(=O)NC1CC1)c1nc2ccc(-c3ccc(F)nc3F)cc2s1 (centres unmarked)
Could you please order the items by IC50, going from the lowest number to the highest? Reply: labels, ordered per the request.
A, B, D, C, E

// provenance: patent US10173991B2
